Source listed as patent US12508247B2.

- PROTOCOL_NOTES: Fasting single dose PK study in dogs: plasma ondansetron after intravenous bolus of marketed ondansetron injection (reference)
- Assay type: in vivo
- TEST_CONDITIONS: G2, IV bolus 24 mg/dog, fasted male Beagle dogs
- Description: Male Beagle dogs were fasted are divided into six groups as G1, G2, G3, G4, G5 and G6 each consisting of four dogs. […]
ENDPOINT_NAME: MRT last (h)

{"columns": ["MOLECULE", "ENDPOINT_NAME", "OBSERVED_MEASUREMENT"],
 "data": [
  ["Cc1nccn1CC1CCc2c(c3ccccc3n2C)C1=O (stereo not shown)", "MRT last", 1.17]
]}
